These entries and their values trace back to paper PMC10786891.

Biological target: T1, EsCas13d, nuclease-dead (Eubacterium siraeum, UniProt B0MS50, R295A;H300A;R849A;H854A)
T1 sequence: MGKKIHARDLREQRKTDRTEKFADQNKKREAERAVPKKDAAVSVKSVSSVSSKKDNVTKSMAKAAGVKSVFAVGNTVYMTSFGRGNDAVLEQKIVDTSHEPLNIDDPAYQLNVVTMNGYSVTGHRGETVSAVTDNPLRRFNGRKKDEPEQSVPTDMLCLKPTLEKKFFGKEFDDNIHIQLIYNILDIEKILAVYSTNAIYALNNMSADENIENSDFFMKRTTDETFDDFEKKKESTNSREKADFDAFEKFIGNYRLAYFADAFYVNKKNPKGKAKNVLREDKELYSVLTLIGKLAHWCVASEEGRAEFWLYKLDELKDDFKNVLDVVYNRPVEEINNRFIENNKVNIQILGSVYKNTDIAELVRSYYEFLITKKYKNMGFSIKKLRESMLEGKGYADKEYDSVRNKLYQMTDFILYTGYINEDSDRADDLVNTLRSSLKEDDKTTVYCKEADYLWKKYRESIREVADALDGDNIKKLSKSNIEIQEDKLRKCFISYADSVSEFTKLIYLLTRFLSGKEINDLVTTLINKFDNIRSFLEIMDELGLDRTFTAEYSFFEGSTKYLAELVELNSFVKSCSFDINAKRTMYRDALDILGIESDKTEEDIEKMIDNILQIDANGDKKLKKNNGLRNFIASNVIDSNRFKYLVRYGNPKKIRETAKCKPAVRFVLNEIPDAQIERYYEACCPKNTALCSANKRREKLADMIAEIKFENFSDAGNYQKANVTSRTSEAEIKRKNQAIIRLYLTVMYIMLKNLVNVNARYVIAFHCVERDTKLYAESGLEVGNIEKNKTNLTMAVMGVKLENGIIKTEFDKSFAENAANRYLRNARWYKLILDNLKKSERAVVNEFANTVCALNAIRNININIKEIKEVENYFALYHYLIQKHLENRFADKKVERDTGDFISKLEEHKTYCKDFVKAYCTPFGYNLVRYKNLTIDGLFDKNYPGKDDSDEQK
Assay: crRNA (strand 1, pre-loaded); Mg2+; 40 mM Tris-HCl pH 7.5, 150 mM NaCl, 6 mM MgCl2, 1 mM DTT, 0.1% Tween-20, 0.2 mg/ml BSA; 25 C; 10 min per concentration, then washed
Conditions: tags: His6-TwinStrep-SUMO cleaved; N-terminal SNAP kept (SNAP-Surface 488); label: 3' end held by stalled T7 RNA polymerase
metric: pKd
Entry type: numeric. Quantity: pKd, the -log10 of concentration in molar units.

// returns reported pKd for input target 1 MT 5'PFS UAG 3'PFS UAG (mixed) RNA 1: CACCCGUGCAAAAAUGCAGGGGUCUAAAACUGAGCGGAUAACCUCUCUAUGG RNA 2: GGGAAUGGAUCCACAUCUACGAAUUCUAGCCAUAGAGAGGUUAUCCGCUCAUAGAGAUCGGAAGAGCACACGU
7.13

Field entry: target 1 insG 3' of 14,insU 3' of 7 (mixed) RNA 1: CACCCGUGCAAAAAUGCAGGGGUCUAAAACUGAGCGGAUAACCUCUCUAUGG RNA 2: GGGAAUGGAUCCACAUCUACGAAUUCGUACCAUAGAGAGGGUUAUCUCGCUCACCGAGAUCGGAAGAGCACACGU
7.73

Now try target 2 MT 5'PFS UAG 3'PFS CAG (mixed) RNA 1: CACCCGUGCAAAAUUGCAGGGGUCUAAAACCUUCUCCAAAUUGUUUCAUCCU RNA 2: GGGAAUGGAUCCACAUCUACGAAUUCUAGAGGAUGAAACAAUUUGGAGAAGCAGAGAUCGGAAGAGCACACGU .
8.57

How about target 1 C7U,C21A (mixed) RNA 1: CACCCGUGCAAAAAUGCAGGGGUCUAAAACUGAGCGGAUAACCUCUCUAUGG RNA 2: GGGAAUGGAUCCACAUCUACGAAUUCGUACAAUAGAGAGGUUAUUCGCUCACCGAGAUCGGAAGAGCACACGU ?
7.61
